Target: T1, human monomeric His tagged CD33 protein (human, UniProt P20138 18-259)
T1 construct: also called hCD33-His
T1 sequence (P20138 18-259 limits assumed): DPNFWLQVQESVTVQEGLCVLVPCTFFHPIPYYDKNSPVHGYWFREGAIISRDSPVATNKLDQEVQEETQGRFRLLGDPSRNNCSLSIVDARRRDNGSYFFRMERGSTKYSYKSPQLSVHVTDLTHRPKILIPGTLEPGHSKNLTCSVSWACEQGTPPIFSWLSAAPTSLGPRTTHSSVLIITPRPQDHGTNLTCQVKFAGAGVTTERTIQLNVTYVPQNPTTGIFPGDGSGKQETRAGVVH
Test: ForteBio BLI or MSD-SET, IgG, monomeric antigen;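 also: BLI: antibodies captured on AHQ sensors, 100 nM antigen association 5 min, dissociation 5 min, 1:1 fit. MSD-SET: antigen fixed at 50 pM, antibody titrated, quadratic fit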
reportedEndpoint: pKd
Recall that pKd is obtained by taking minus log10 of the concentration measured in molar.

Would you please look over these solved cases?
binder: C-38 (antibody, V domains shown, human IgG1) VH: QLQLQESGPGLVKPSETLSLTCTVSGGSISSSSYYWGWIRQPPGKGLEWIGSIYYSGSTYYNPSLKSRVTISVDTSKNQFSLKLSSVTAADTAVYYCAREATAAADHPGMDVWGQGTTVTVSS VL: DIQMTQSPSSLSASVGDRVTITCQASQDITNYLNWYQQKPGKAPKLLIYDASNLETGVPSRFSGSRSGTDFTFTISSLQPEDIATYYCQQYHDFPTFGGGTKVEIK
pKd: 8.28

binder: C-24 (antibody, V domains shown, human IgG1) VH: QVQLVQSGAEVKKPGASVKVSCKASGYTFTSYYMHWVRQAPGQGLEWMGVINPSGGSTSYAQKFQGRVTMTRDTSTSTVYMELSSLRSEDTAVYYCARESQYYDVHGMDVWGQGTTVTVSS VL: DIQMTQSPSSLSASVGDRVTITCRASQSISSYLNWYQQKPGKAPKLLIYAASSLQSGVPSRFSGSGSGTDFTLTISSLQPEDFATYYCQQSVTPPLTFGGGTKVEIK
pKd: 8.16

binder: C-68 (antibody, V domains shown, human IgG1) VH: QVQLQESGPGLVKPSQTLSLTCTVSGGSISSGGYYWSWIRQHPGKGLEWIGNIYYSGSTYYNPSLKSRVTISVDTSKNQFSLKLSSVTAADTAVYYCARDLPNSGSPGSDYFDYWGQGTLVTVSS VL: EIVLTQSPGTLSLSPGERATLSCRASQSVSSSYLAWYQQKPGQAPRLLIYGASSRATGIPDRFSGSGSGTDFTLTISRLEPEDFAVYYCQQYDNYPPTFGGGTKVEIK
pKd: 7.51

binder: C-61 (antibody, V domains shown, human IgG1) VH: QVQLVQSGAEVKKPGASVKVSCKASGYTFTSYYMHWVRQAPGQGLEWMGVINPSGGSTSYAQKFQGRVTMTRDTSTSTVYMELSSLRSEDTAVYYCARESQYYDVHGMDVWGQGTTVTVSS VL: EIVLTQSPGTLSLSPGERATLSCRASQSVSSSYLAWYQQKPGQAPRLLIYGASSRATGIPDRFSGSGSGTDFTLTISRLEPEDFAVYYCQQYYGLPLTFGGGTKVEIK
pKd: 7.87

## Task Value lookup for pKd; key = C-25 (antibody, V domains shown, human IgG1) VH: EVQLVESGGGLVQPGGSLRLSCAASGFTFSSYWMSWVRQAPGKGLEWVANIKSDGSEKYYVDSVKGRFTISRDNAKNSLYLQMNSLRAEDTAVYYCAREGFRDGINWFDPWGQGTLVTVSS VL: DIQMTQSPSSLSASVGDRVTITCRASQSISRYLNWYQQKPGKAPKLLIYAASSLQSGVPSRFSGSGSGTDFTLTISSLQPEDFATYYCQQQFLTPITFGGGTKVEIK
## Result 8.06
